For each of the compounds below, state its Ki.
State just the number; it will be interpreted in µM.

# value of Ki, UniProt Q9H3N8, item c1nc(CCC2CCCCN2)c[nH]1 (centres undefined) = 4.47

# value of Ki, UniProt Q9H3N8, item N[C@H]1C[C@@H]1c1c[nH]cn1 = 1.1

# value of Ki, UniProt Q9H3N8, item C1=C(c2c[nH]cn2)CCNC1 = 263

# value of Ki, UniProt Q9H3N8, item NCC1CC1c1c[nH]cn1 (centres undefined) = 0.112

# value of Ki, UniProt Q9H3N8, item NCCCCCCc1cnc[nH]1 = 0.759

# value of Ki, UniProt Q9H3N8, item N[C@@H]1C[C@H]1c1cnc[nH]1 = 3.8

# value of Ki, UniProt Q9H3N8, item c1nc(CCCC2CCCNC2)c[nH]1 (centres undefined) = 0.389

# value of Ki, UniProt Q9H3N8, item C=C(c1c[nH]cn1)C1CCNCC1 = 2.82

# value of Ki, UniProt Q9H3N8, item c1nc(C2CCNCC2)c[nH]1 = 2.19

---

- target_entity: Histamine H3 receptor (Homo sapiens)
Entries are grouped by Ki into these classes: bottom: < 9 nM; middle: ≥ 9 nM and < 90 nM; top: ≥ 90 nM

Problem: The entry to classify is NCCCCCCc1cnc[nH]1 ; which class holds it?
Result: middle

Problem: The entry to classify is c1nc(C[C@@H]2CCNC2)c[nH]1 ; which class holds it?
Result: bottom

Problem: The entry to classify is N[C@H]1C[C@@H]1c1c[nH]cn1 ; which class holds it?
Result: middle

Problem: The entry to classify is c1nc(CCC2CCCNC2)c[nH]1 (configuration not stated) ; which class holds it?
Result: top

Problem: The entry to classify is c1nc(C2CCNCC2)c[nH]1 ; which class holds it?
Result: top

Problem: The entry to classify is N[C@@H]1C[C@H]1c1cnc[nH]1 ; which class holds it?
Result: middle

Problem: The entry to classify is c1nc(CCCC2CCCCN2)c[nH]1 (configuration not stated) ; which class holds it?
Result: top

Problem: The entry to classify is c1nc(CC2CCNCC2)c[nH]1 [IMMEPIP] ; which class holds it?
Result: bottom

Problem: The entry to classify is NCCCCc1c[nH]cn1 ; which class holds it?
Result: bottom

Problem: The entry to classify is NCC1CC1c1c[nH]cn1 (configuration not stated) ; which class holds it?
Result: middle

Problem: The entry to classify is C1=C(c2c[nH]cn2)CCNC1 ; which class holds it?
Result: top

Problem: The entry to classify is c1nc(CC2CCCNC2)c[nH]1 (configuration not stated) ; which class holds it?
Result: middle

---

- target_entity: Histamine H3 receptor (Homo sapiens, UniProt Q9Y5N1)
- Sequence (Q9Y5N1 whole entry): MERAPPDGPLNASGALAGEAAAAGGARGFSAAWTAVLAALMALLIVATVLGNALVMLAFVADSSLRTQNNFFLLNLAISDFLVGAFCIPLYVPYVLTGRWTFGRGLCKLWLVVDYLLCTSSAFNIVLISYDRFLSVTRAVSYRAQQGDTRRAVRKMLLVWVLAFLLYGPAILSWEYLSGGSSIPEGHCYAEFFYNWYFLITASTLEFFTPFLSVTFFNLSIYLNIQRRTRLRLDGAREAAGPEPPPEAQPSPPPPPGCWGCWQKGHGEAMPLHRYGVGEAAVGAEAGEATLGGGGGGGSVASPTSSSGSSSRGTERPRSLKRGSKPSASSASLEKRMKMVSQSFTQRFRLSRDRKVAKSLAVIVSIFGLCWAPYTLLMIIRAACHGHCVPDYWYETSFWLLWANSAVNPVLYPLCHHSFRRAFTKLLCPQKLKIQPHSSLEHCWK
- protocol: Inhibitory activity determined by the inhibition of cAMP- stimulated beta-galactosidase transcription in SK-N-MC cells expressing the human Histamine H3 receptor
- Type: cell-based
metric_name: log10 of EC50 (log10 of the value in nM)
Log scale reminder: EC50 in nM, then log10 taken.

// sample NCCCCCCc1cnc[nH]1 , its log10 of EC50 was 1.52

// sample NCCCc1c[nH]cn1 [HOMOHISTAMINE] , its log10 of EC50 was 1.63

// sample c1nc(CCC2CCNCC2)c[nH]1 , its log10 of EC50 was 1.12

// sample N[C@H]1C[C@@H]1c1c[nH]cn1 [VUF-5297] , its log10 of EC50 was 0.77

// sample C1=C(c2c[nH]cn2)CCNC1 , its log10 of EC50 was 3.18

// sample c1ncc(CCCC2CCNCC2)[nH]1 , its log10 of EC50 was 0.92

// sample O=C(c1c[nH]cn1)C1CCNCC1 , its log10 of EC50 was 3.44

// sample NCCCCCc1c[nH]cn1 [IMPENTAMINE] , its log10 of EC50 was 0.37

---

For each of the compounds below, state its EC50.
- target_entity: Histamine H3 receptor (Homo sapiens, UniProt Q9Y5N1)
- protocol: Inhibitory activity determined by the inhibition of cAMP- stimulated beta-galactosidase transcription in SK-N-MC cells expressing the human Histamine H3 receptor

// sample NCCCCc1c[nH]cn1 [IMBUTAMINE] , its EC50 was 7.41 nM

// sample c1nc(CC2CCNCC2)c[nH]1 [IMMEPIP] , its EC50 was 0.132 nM

// sample c1nc(CC2CCCNC2)c[nH]1 (stereo not given) , its EC50 was 49 nM

// sample c1nc(C[C@@H]2CCNC2)c[nH]1 , its EC50 was 0.389 nM

// sample C(=C1CCNCC1)c1c[nH]cn1 , its EC50 was 3.16 nM

// sample c1nc(CCCC2CCCCN2)c[nH]1 (stereo not given) , its EC50 was 324 nM

// sample c1nc(C[C@H]2CCNC2)c[nH]1 , its EC50 was 2.09 nM

// sample c1nc(CCC2CCCNC2)c[nH]1 (stereo not given) , its EC50 was 513 nM

// sample c1nc(CC2CCCCN2)c[nH]1 (stereo not given) , its EC50 was 794 nM

// sample NCC1CC1c1c[nH]cn1 (stereo not given) , its EC50 was 19.5 nM

// sample c1nc(CCC2CCCCN2)c[nH]1 (stereo not given) , its EC50 was > 10000 nM

// sample N[C@@H]1C[C@H]1c1cnc[nH]1 [VUF-5296] , its EC50 was 57.5 nM

// sample c1nc(C2CCNCC2)c[nH]1 , its EC50 was 1820 nM

// sample c1nc(CC2CCNC2)c[nH]1 (stereo not given) , its EC50 was 1.32 nM

// sample C=C(c1c[nH]cn1)C1CCNCC1 , its EC50 was 2.34 nM

---

For each of the compounds below, state its Intrinsic activity.
- target_entity: Histamine H4 receptor (Homo sapiens, UniProt Q9H3N8)
- Sequence (Q9H3N8 whole entry): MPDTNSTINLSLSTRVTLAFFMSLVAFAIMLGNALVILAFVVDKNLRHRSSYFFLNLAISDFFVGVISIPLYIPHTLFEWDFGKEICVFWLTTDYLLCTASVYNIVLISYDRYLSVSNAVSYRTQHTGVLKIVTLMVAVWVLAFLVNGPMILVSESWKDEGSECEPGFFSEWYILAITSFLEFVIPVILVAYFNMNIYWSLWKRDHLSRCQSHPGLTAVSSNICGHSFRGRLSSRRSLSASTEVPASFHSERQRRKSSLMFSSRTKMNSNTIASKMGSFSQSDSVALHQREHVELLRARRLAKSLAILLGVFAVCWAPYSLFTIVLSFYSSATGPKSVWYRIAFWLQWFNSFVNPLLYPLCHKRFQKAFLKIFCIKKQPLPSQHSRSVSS
- protocol: Intrinsic activity for Histamine H4 receptor
Form rule: numeric answer, no unit written next to it.

// sample NCCCCc1c[nH]cn1 [IMBUTAMINE] , its Intrinsic activity was 0.96

// sample C[C@@H](N)Cc1c[nH]cn1 , its Intrinsic activity was 1.04

// sample c1nc(C[C@H]2CCNC2)c[nH]1 , its Intrinsic activity was 0.85

// sample c1nc(CC2CCNCC2)c[nH]1 [IMMEPIP] , its Intrinsic activity was 0.73

// sample c1nc(CC2CCCNC2)c[nH]1 (stereo unspecified) , its Intrinsic activity was 0.64

// sample c1nc(CCC2CCCNC2)c[nH]1 (stereo unspecified) , its Intrinsic activity was 0.48

// sample c1nc(CC2CCNC2)c[nH]1 (stereo unspecified) , its Intrinsic activity was 0.83

// sample NCC1CC1c1c[nH]cn1 (stereo unspecified) , its Intrinsic activity was 0.56

// sample N[C@H]1C[C@@H]1c1c[nH]cn1 [VUF-5297] , its Intrinsic activity was 0.61

// sample NCCCc1c[nH]cn1 [HOMOHISTAMINE] , its Intrinsic activity was 0.82

// sample c1nc(C[C@@H]2CCNC2)c[nH]1 , its Intrinsic activity was 0.8

---

For each of the molecules below, state its EC50.
- target_entity: Histamine H4 receptor (Homo sapiens, UniProt Q9H3N8)
- protocol: Inhibitory activity determined by the inhibition of cAMP- stimulated beta-galactosidase transcription in SK-N-MC cells expressing the human Histamine H4 receptor
State just the number; it will be interpreted in µM.

// sample c1nc(CC2CCNC2)c[nH]1 (stereo not given) , its EC50 was 0.741

// sample NCCCc1c[nH]cn1 , its EC50 was 0.214

// sample c1nc(CC2CCCNC2)c[nH]1 (stereo not given) , its EC50 was 3.98

// sample c1nc(C[C@@H]2CCNC2)c[nH]1 , its EC50 was 1.02

// sample c1nc(CCC2CCCNC2)c[nH]1 (stereo not given) , its EC50 was 2.04

// sample NCC1CC1c1c[nH]cn1 (stereo not given) , its EC50 was 1.1

// sample N[C@H]1C[C@@H]1c1c[nH]cn1 , its EC50 was 7.08

// sample c1nc(CC2CCNCC2)c[nH]1 [IMMEPIP] , its EC50 was 0.0562

// sample NCCCCc1c[nH]cn1 , its EC50 was 0.0891

// sample C[C@@H](N)Cc1c[nH]cn1 , its EC50 was 1.12

// sample c1nc(C[C@H]2CCNC2)c[nH]1 , its EC50 was 0.417
